Kindly supply the reported protein stability index values for the records listed here.
B1: FAM189A2 (parent)
chain: VAAALRYLQIFATRRSCIDESQIS

- Variants of: B1
- assay_method_text: protein stability index of a GFP-peptide fusion (GPS, HEK-293T) (PSI 1-6); higher = more stable;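 note: lentivirally expressed fusions sorted by FACS into six bins by GFP to DsRed ratio, PSI derived from sequencing read proportions per bin multiplied by bin number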
- run_parameters: c terminus: a fixed tail appended
# print the numeric value only

Lab note: R14Q gave protein stability index of 1.91

Lab note: R6H gave protein stability index of 2.98

Lab note: I23F gave protein stability index of 2.9

Lab note: Q9A gave protein stability index of 2.72

Lab note: S21I gave protein stability index of 4.41

Lab note: D19T gave protein stability index of 2.36

Lab note: R6N gave protein stability index of 1.23

Lab note: I23E gave protein stability index of 2.76

Lab note: A2K gave protein stability index of 3.28

Lab note: F11A gave protein stability index of 2.69

Lab note: S24E gave protein stability index of 1.52

Lab note: A3E gave protein stability index of 2.34

Lab note: A4M gave protein stability index of 3.33

Lab note: R15H gave protein stability index of 1.94

Lab note: I18G gave protein stability index of 2.2

Lab note: I10D gave protein stability index of 2.24

Lab note: Q22W gave protein stability index of 3.61

Lab note: T13S gave protein stability index of 1.76

Lab note: E20N gave protein stability index of 2.85

Lab note: C17L gave protein stability index of 1.58

Lab note: R6D gave protein stability index of 1.69

Lab note: F11K gave protein stability index of 2.03

The reported measurements were obtained from the supplement of paper PMC10567573.
